- Tested on: SK-BR-3
- experimentSummary: SRB colorimetric assay of cell growth and viability, SK-BR-3
- Type: cell-based, human
- experimentalConditions: 48 hours exposure
- Experimental: The finality of this assay is to interrupt the growth of a “in vitro” tumor cell culture by means a continued exhibition of the cells to the sample to be testing. […] Cells are seeded in 96 well microtiter plates, at 5×10^3 cells per well in aliquots of 195 μL medium, and they are allowed to attach to the plate surface by growing in drug free medium for 18 hours. […] Optical densities are read on a automated spectrophotometric plate reader at a single wavelength of 490 nm. […]
attributeMeasured: TGI SK-BR-3
Enter the number, and then the unit.

Record request: TGI SK-BR-3 value, item C/C=C1\NC(=O)[C@H](Cc2ccccc2)NC(=O)[C@@H](C(C)C)NC(=O)[C@@H]([C@@H](C)CC)NC(=O)[C@H](NC(=O)[C@H](NC(=O)[C@H](CCCN)NC(=O)[C@H]2CCCN2C(=O)[C@H](NC(=O)[C@@H](NC(=O)[C@@H](NC(=O)[C@H](NC(=O)CCCNC(=N)N)C(C)C)[C@@H](C)O)C(C)C)C(C)C)[C@@H](C)CC)[C@@H](C)OC(=O)[C@H](C(C)C)NC1=O [Compound 29, [4-GuBut^14]-KF]
6.70E−06 Molar

Reference for the values: patent US20070117743A1
